System: Hsp90 in HEPG2 lysate
RUN_PARAMETERS: EC50 relative to GdA, HEPG2 lysate
Assignment: determine reported Ratio rel. GdA (HepG2) for the given compounds.
Simply state the number, no unit and no words.

For reference, reported Ratio rel. GdA (HepG2) for CCON=C1/C=C/C=C\[C@H]2O[C@H]2C[C@@H](C)OC(=O)c2c(O)cc(O)c(Cl)c2C1 stands at 0.3573

For reference, reported Ratio rel. GdA (HepG2) for CC1CC2OC2C=CC=CC(=NOCc2cccc(F)c2)Cc2c(Cl)c(O)cc(O)c2C(=O)O1 (mixture of isomers) stands at 29.9414

For reference, reported Ratio rel. GdA (HepG2) for CC1CC2OC2C=CC=CC(=NOCCN2CCCC2=O)Cc2c(Cl)c(O)cc(O)c2C(=O)O1 (stereo not drawn) [KF58333, reference compound] stands at 0.4698

For reference, reported Ratio rel. GdA (HepG2) for COc1ccc(CON=C2C=CC=CC3OC3CC(C)OC(=O)c3c(O)cc(O)c(Cl)c3C2)cc1 (mixture of isomers) stands at 135.257

For reference, reported Ratio rel. GdA (HepG2) for CC1CC2OC2C=CC=CC(=NOCc2ccccc2)Cc2c(Cl)c(O)cc(O)c2C(=O)O1 (mixture of isomers) stands at 15.9107

For reference, reported Ratio rel. GdA (HepG2) for COc1ccc(CON=C2C=CC=CC3OC3CC(C)OC(=O)c3c(O)cc(O)cc3C2)cc1 (stereo not drawn) stands at 135.257

* * *

Assignment: determine reported FP signal for the given compounds.
TARGET_DESC: Hsp90 in C. albicans (SC5314) lysate (Candida albicans, UniProt P46598)
Construct: endogenous in cells; host or cells: C. albicans SC5314 whole-cell lysate
Sequence (P46598 whole entry): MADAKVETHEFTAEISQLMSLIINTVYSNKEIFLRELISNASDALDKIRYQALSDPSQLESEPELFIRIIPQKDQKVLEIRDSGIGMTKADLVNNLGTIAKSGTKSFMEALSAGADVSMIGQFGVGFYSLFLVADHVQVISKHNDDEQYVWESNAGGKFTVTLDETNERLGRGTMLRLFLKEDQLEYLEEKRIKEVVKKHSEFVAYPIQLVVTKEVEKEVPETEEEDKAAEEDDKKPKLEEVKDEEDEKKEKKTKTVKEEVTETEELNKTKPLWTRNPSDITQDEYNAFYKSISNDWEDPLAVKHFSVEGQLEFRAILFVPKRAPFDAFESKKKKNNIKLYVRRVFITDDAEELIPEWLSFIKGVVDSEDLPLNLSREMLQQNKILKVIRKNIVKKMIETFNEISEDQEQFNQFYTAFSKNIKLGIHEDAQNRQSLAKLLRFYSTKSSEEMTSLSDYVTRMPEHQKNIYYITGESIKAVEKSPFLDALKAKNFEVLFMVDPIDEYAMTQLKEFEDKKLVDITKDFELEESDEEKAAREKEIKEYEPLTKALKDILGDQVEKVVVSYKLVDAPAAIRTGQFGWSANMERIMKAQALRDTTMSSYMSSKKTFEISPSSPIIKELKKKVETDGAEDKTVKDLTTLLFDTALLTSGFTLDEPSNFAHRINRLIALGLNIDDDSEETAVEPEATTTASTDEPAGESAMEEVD
PROCEDURE_TEXT: biochemical
Type: binding
RUN_PARAMETERS: SC5314 lysate, 3000 nM compound, raw
Simply state the number, no unit and no words.

For reference, reported FP signal for CC1CC2OC2C=CC=CC(=NOCc2ccccc2)Cc2c(Cl)c(O)cc(O)c2C(=O)O1 (mixture of isomers) [compound 217] stands at 38

For reference, reported FP signal for CC1CC2OC2C=CC=CC(=NOCc2cccc(F)c2)Cc2c(Cl)c(O)cc(O)c2C(=O)O1 (mixture of isomers) [compound 227] stands at 32

For reference, reported FP signal for Cc1ccc(CON=C2C=CC=CC3OC3CC(C)OC(=O)c3c(O)cc(O)c(Cl)c3C2)cc1 (mixture of isomers) [compound 218] stands at 45

For reference, reported FP signal for COc1ccccc1CON=C1C=CC=CC2OC2CC(C)OC(=O)c2c(O)cc(O)c(Cl)c2C1 (mixture of isomers) [compound 226] stands at 38

For reference, reported FP signal for COc1ccc(CON=C2C=CC=CC3OC3CC(C)OC(=O)c3c(O)cc(O)c(Cl)c3C2)cc1 (mixture of isomers) [compound 224] stands at 52

For reference, reported FP signal for CC1CC2OC2C=CC=CC(=NOCCN2CCCC2=O)Cc2c(Cl)c(O)cc(O)c2C(=O)O1 (stereo not drawn) [KF58333, reference compound] stands at 36

* * *

TARGET_DESC: Hsp90 in C. albicans (SC5314) lysate (Candida albicans)
Construct: endogenous in cells; host or cells: C. albicans SC5314 whole-cell lysate
PROCEDURE_TEXT: biochemical
Assay type: binding
RUN_PARAMETERS: SC5314 lysate, 3000 nM
REPORTED_METRIC: FP signal (raw)
Simply state the number, no unit and no words.

For reference, reported FP signal (raw) for COc1ccc(CON=C2C=CC=CC3OC3CC(C)OC(=O)c3c(O)cc(O)cc3C2)cc1 (stereo not shown) stands at 40

For reference, reported FP signal (raw) for CC1CC2OC2C=CC=CC(=NOCCN2CCCC2=O)Cc2c(Cl)c(O)cc(O)c2C(=O)O1 (stereo not shown) [KF58333, reference compound] stands at 36

For reference, reported FP signal (raw) for CC1CC2OC2C=CC=CC(=NOCc2ccccc2)Cc2c(Cl)c(O)cc(O)c2C(=O)O1 (mixture of isomers) stands at 38

For reference, reported FP signal (raw) for COc1ccccc1CON=C1C=CC=CC2OC2CC(C)OC(=O)c2c(O)cc(O)c(Cl)c2C1 (mixture of isomers) stands at 38

* * *

Assignment: determine reported FP signal relative to 0 nM for the given compounds.
TARGET_DESC: Hsp90 in C. albicans (SC5314) lysate (Candida albicans, UniProt P46598)
Construct: endogenous in cells; host or cells: C. albicans SC5314 whole-cell lysate
PROCEDURE_TEXT: biochemical
Format: binding
RUN_PARAMETERS: SC5314 lysate, 3000 nM compound
Simply state the number, no unit and no words.

For reference, reported FP signal relative to 0 nM for Cc1ccc(CON=C2C=CC=CC3OC3CC(C)OC(=O)c3c(O)cc(O)c(Cl)c3C2)cc1 (mixture of isomers) stands at 0.2184

For reference, reported FP signal relative to 0 nM for COc1ccc(CON=C2C=CC=CC3OC3CC(C)OC(=O)c3c(O)cc(O)c(Cl)c3C2)cc1 (mixture of isomers) stands at 0.26

For reference, reported FP signal relative to 0 nM for CC1CC2OC2C=CC=CC(=NOCCN2CCCC2=O)Cc2c(Cl)c(O)cc(O)c2C(=O)O1 (stereo not drawn) [KF58333, reference compound] stands at 0.1739

For reference, reported FP signal relative to 0 nM for C[C@@H]1C[C@@H]2O[C@@H]2/C=C\C=C\C(=NOCc2ccccc2Cl)Cc2c(Cl)c(O)cc(O)c2C(=O)O1 stands at 0.1875

For reference, reported FP signal relative to 0 nM for CC1CC2OC2C=CC=CC(=NOCc2cccc(F)c2)Cc2c(Cl)c(O)cc(O)c2C(=O)O1 (mixture of isomers) stands at 0.1592

For reference, reported FP signal relative to 0 nM for CC1CC2OC2C=CC=CC(=NOCc2ccccc2)Cc2c(Cl)c(O)cc(O)c2C(=O)O1 (mixture of isomers) stands at 0.1818

For reference, reported FP signal relative to 0 nM for COc1ccccc1CON=C1C=CC=CC2OC2CC(C)OC(=O)c2c(O)cc(O)c(Cl)c2C1 (mixture of isomers) stands at 0.1863

For reference, reported FP signal relative to 0 nM for COc1ccc(CON=C2C=CC=CC3OC3CC(C)OC(=O)c3c(O)cc(O)cc3C2)cc1 (stereo not drawn) stands at 0.1942

For reference, reported FP signal relative to 0 nM for CCON=C1/C=C/C=C\[C@H]2O[C@H]2C[C@@H](C)OC(=O)c2c(O)cc(O)c(Cl)c2C1 stands at 0.1733

* * *

Assignment: determine reported FP signal (raw) for the given compounds.
TARGET_DESC: Hsp90 in C. albicans (SC5314) lysate (Candida albicans, UniProt P46598)
Construct: endogenous in cells; host or cells: C. albicans SC5314 whole-cell lysate
PROCEDURE_TEXT: biochemical
Assay type: binding
RUN_PARAMETERS: SC5314 lysate, 1 uM
Simply state the number, no unit and no words.

So the reported FP signal (raw) for COc1ccc(CON=C2C=CC=CC3OC3CC(C)OC(=O)c3c(O)cc(O)cc3C2)cc1 (mixture of isomers) [CMLD075] , on Hsp90 in C. albicans (SC5314) lysate (Candida albicans, UniProt P46598), turned out to be 6

So the reported FP signal (raw) for COC1=C2C[C@@H](C)C[C@H](OC)[C@H](O)[C@@H](C)/C=C(\C)[C@H](OC(N)=O)[C@@H](OC)/C=C\C=C(/C)C(=O)NC(=CC1=O)C2=O [geldanamycin, reference compound] , on Hsp90 in C. albicans (SC5314) lysate (Candida albicans, UniProt P46598), turned out to be -4

So the reported FP signal (raw) for CC1(C)CC(=O)c2c(C(F)(F)F)nn(-c3ccc(C(N)=O)c(N[C@H]4CC[C@H](O)CC4)c3)c2C1 [SNX2112] , on Hsp90 in C. albicans (SC5314) lysate (Candida albicans, UniProt P46598), turned out to be 5

So the reported FP signal (raw) for CCNC(=O)c1noc(-c2cc(C(C)C)c(O)cc2O)c1-c1ccc(CN2CCOCC2)cc1 [AUY922, reference compound] , on Hsp90 in C. albicans (SC5314) lysate (Candida albicans, UniProt P46598), turned out to be -2

* * *

TARGET_DESC: Hsp90 in C. albicans (SC5314) lysate (Candida albicans)
Construct: endogenous in cells; host or cells: C. albicans SC5314 whole-cell lysate
PROCEDURE_TEXT: biochemical
Format: binding
RUN_PARAMETERS: SC5314 lysate, 0.457 nM compound
Assignment: determine reported FP signal relative to 0 nM for the given compounds.
Simply state the number, no unit and no words.

For reference, reported FP signal relative to 0 nM for COc1ccc(CON=C2C=CC=CC3OC3CC(C)OC(=O)c3c(O)cc(O)cc3C2)cc1 (stereo not drawn) stands at 0.9709

For reference, reported FP signal relative to 0 nM for COc1ccccc1CON=C1C=CC=CC2OC2CC(C)OC(=O)c2c(O)cc(O)c(Cl)c2C1 (mixture of isomers) stands at 0.9461

For reference, reported FP signal relative to 0 nM for CCON=C1/C=C/C=C\[C@H]2O[C@H]2C[C@@H](C)OC(=O)c2c(O)cc(O)c(Cl)c2C1 stands at 0.8317

For reference, reported FP signal relative to 0 nM for CC1CC2OC2C=CC=CC(=NOCc2ccccc2)Cc2c(Cl)c(O)cc(O)c2C(=O)O1 (mixture of isomers) stands at 0.9426

For reference, reported FP signal relative to 0 nM for Cc1ccc(CON=C2C=CC=CC3OC3CC(C)OC(=O)c3c(O)cc(O)c(Cl)c3C2)cc1 (mixture of isomers) stands at 0.9806

For reference, reported FP signal relative to 0 nM for CC1CC2OC2C=CC=CC(=NOCc2cccc(F)c2)Cc2c(Cl)c(O)cc(O)c2C(=O)O1 (mixture of isomers) stands at 0.9652

For reference, reported FP signal relative to 0 nM for CC1CC2OC2C=CC=CC(=NOCCN2CCCC2=O)Cc2c(Cl)c(O)cc(O)c2C(=O)O1 (stereo not drawn) [KF58333, reference compound] stands at 0.9807

For reference, reported FP signal relative to 0 nM for COc1ccc(CON=C2C=CC=CC3OC3CC(C)OC(=O)c3c(O)cc(O)c(Cl)c3C2)cc1 (mixture of isomers) stands at 1.02

For reference, reported FP signal relative to 0 nM for C[C@@H]1C[C@@H]2O[C@@H]2/C=C\C=C\C(=NOCc2ccccc2Cl)Cc2c(Cl)c(O)cc(O)c2C(=O)O1 stands at 0.9904
